B1: Membrane-associated guanylate kinase, WW and PDZ domain-containing protein 1, residues 352 to 401; numbered along this chain, Q96QZ7 (parent)
chain: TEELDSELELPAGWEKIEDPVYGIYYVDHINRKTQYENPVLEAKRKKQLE

Variants of: B1
test.details: abundance fitness (aPCA) (normalised: wild type 0, dead -1); higher = more abundant; growth selection in yeast, the domain comes from the species named
condition.description: Homo sapiens
Cut-off -0.4 on abundance fitness, inclusive. At or above means y; below means n.

change	qualitative.label
D28N	y
P11A	y
E42K	n
E18H	y
E50Q	n
